Catalogue of Inhibition values
Tested on: Candida albicans
Details: 20 µM
Description: Antifungal activity against Candida albicans ATCC 90028 (CO-ADD:FG_001); MIC in YNB media using NBS plates, by OD630
Entries with a potency or affinity are not part of this list.
Numeric only. Scale: %

Exercise: Query (compound): COc1nc(C)nc(Cl)c1NC1=NCCN1.Cl [MOXONIDINE HYDROCHLORIDE] ; field requested: Inhibition
Key: 3.01

Exercise: Then what about the compound Cl.O=C(O)/C=C/c1ccc(Cn2ccnc2)cc1 ?
Key: 3.2

Exercise: Again, but for Cc1cnc(NC(=O)C2=C(O)c3ccccc3S(=O)(=O)N2C)s1
Key: 9.71

Exercise: How about Cc1ccc(-c2cc(C(F)(F)F)nn2-c2ccc(S(N)(=O)=O)cc2)cc1 ?
Key: 2.46

Exercise: // query: Cc1occc(=O)c1O
Key: 4.42

---
Exercise: Given the compound CN(C)CCCN1c2ccccc2CCc2ccccc21.Cl [IMIPRAMINE HYDROCHLORIDE] , what is its reported Inhibition?
Key: 0.7

Exercise: Okay, and CCOC(=O)C1=C(C)NC(C)=C(C(=O)OC)C1c1cccc([N+](=O)[O-])c1 (configuration not stated) ?
Key: 3.79
